Reported inhibition values are given for each entry in this list.
assay: growth inhibition, single agents and combos, UWB1.289, cell-based, BGB or cisplatin combos, synergistic combos for chromothripsis tumors (AID 1671456); conditions: UWB1.289 ovarian carcinoma cells, at 0.5 µM, stronger effect = higher value;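 also: cells exposed to compound for four days; 0% = vehicle DMSO and 100% = killing by high DMSO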
Non-standard residues stand in square brackets, D forms with d. Residues, ends and D or L forms follow the SMILES beside them. Dolaproine = CO[C@@H]([C@@H]1CCCN1)[C@@H](C)C(=O)O; Dil = CC[C@H](C)[C@H](NC)[C@@H](CC(=O)O)OC; NMeV = CN[C@H](C(=O)O)C(C)C
// note: answer is a bare numeric in %

compound="CC[C@H](C)[C@@H]([C@@H](CC(=O)N1CCC[C@H]1[C@H](OC)[C@@H](C)C(=O)N[C@@H](Cc1ccccc1)C(=O)O)OC)N(C)C(=O)[C@@H](NC(=O)[C@@H](NC)C(C)C)C(C)C (H-[NMeV]V[Dil][Dolaproine]F-OH)" reported_value=20.2
compound=Cc1ccc(NC(=O)CCCCCC(=O)Nc2ccccc2N)cc1 reported_value=-13.2
compound=COc1ccc(-c2nc(-c3cc(C(F)(F)F)cc(C(F)(F)F)c3)n(Cc3ccc(C(N)=O)cc3)c2-c2ccc(OC)cc2)cc1 reported_value=-10.7
compound="CCC1(O)C(=O)OCc2c1cc1n(c2=O)Cc2cc3cc(O)ccc3nc2-1 (stereo not given)" reported_value=83.6
compound="CC(=O)C1(O)Cc2c(O)c3c(c(O)c2C(OC2CC(N)C(O)C(C)O2)C1)C(=O)c1ccccc1C3=O (stereo not given)" reported_value=83.1

Tell me measured inhibition for O=c1[nH]cnc2c1ncn2C1CCC(CO)O1 (stereo not given) please.
-1.68

State its inhibition: CC1CN(c2c(F)c(N)c3c(=O)c(C(=O)O)cn(C4CC4)c3c2F)CC(C)N1 (stereo not given)
8.04

----------
assay: viability loss with induced miR-34 in A549 – imaging, A549 dox-inducible miR-34, nuclei and caspase counts, primary screen (AID 1347080); conditions: A549 miR-34 inducible, Hoechst nuclei count, 48 h; stronger effect = lower value; cell number ratio, induced over uninduced
Assay readout: fold change
API note: the answer field is a bare number with no unit suffix.

In the examples that follow, each entry is paired with its recorded fold change.
smiles_input=CC(C)(Oc1ccc(Cl)cc1)C(=O)OCCOC(=O)c1cccnc1 assay_readout="fold change" reported_value=0.919
smiles_input=C[C@H](NC(=O)c1cnc(-c2ccccc2)[nH]1)c1ccccc1 assay_readout="fold change" reported_value=0.876

Answer with reported fold change of OB(O)c1ccccc1
0.876

Input OC[C@H]1NC[C@@H](O)[C@@H]1O , output reported fold change.
0.888

Quote fold change reported for C[C@@]12CCC3=C4CCC(=O)C=C4CC[C@H]3[C@@H]1CC[C@@]2(O)CC#N please.
0.908

----------
assay: MELAS cybrid and Rieske KO viability enhancers – cell-based, MELAS cybrids, Rieske KO mouse fibroblasts, CellTiter-Glo, primary screen (AID 1508586); conditions: MELAS cybrid survival, low glucose, CellTiter-Glo 48 h; stronger effect = higher value;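 also: z relative to plate mean and SD of compound and empty wells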
Below: a set of entries, each annotated with reported z-score.
I'd appreciate a reply containing only the number, no unit.

Example results:
molecule=CCCn1ncc(-c2ccnc(NCc3cc(CC)no3)n2)c1C assay_readout=z-score reported_value=-0.178
molecule="CC(C)c1nc(CN(C)C(=O)NC(C(=O)NC(Cc2ccccc2)CC(O)C(Cc2ccccc2)NC(=O)OCc2cncs2)C(C)C)cs1 (stereo not given)" assay_readout=z-score reported_value=-0.434

Now consider a different molecule.
Respond only with z-score recorded for c1ccc2c(CCc3ccncc3)c[nH]c2c1
1.96
